// provenance: the domain aggregation screens of Martell et al. (2025)

- assay.details: soluble fraction after stress (log2 fold change); higher = more stays soluble; pooled small domains, quantitative proteomics
- assay.setup: stress: 50 degC
Short version: soluble fraction (log2) at least -0.03 is T, less is F.

Exercise: Is the recorded value of soluble fraction (log2) equal to or greater than -0.03 for this sequence? HMVNVLKNSTVIDLVKNNLSDALIISLIRRAKVDFSLMTDDVIELSGKGVSPAVIMEMRQAMIRQASEIQN
Key: F

Exercise: Is the recorded value of soluble fraction (log2) equal to or greater than -0.03 for this sequence? HMLQLKEPLKKVYERLTPVPKTAETILAELWEKGEYLDIAALHRALMELELSGYVRQSSPGYFGTSA
Key: F

Exercise: Is the recorded value of soluble fraction (log2) equal to or greater than -0.03 for this sequence? HMTGIQLNDRERAILQHLSDGLTTKAIAERIFLREDTVKWYRKNLLARFEQPIVAALVKWAVLEGLV
Key: T

Exercise: Is the recorded value of soluble fraction (log2) equal to or greater than -0.03 for this sequence? HMTYADTRDLLIRRGMELLTEQGIAATSIERVLQSTGIPKGSFYHYFATKHDFTLAVMDAYHHY
Key: F

Exercise: Is the recorded value of soluble fraction (log2) equal to or greater than -0.03 for this sequence? HMNSKMTYSELITSMENKEVESVKISSSGDVASVKLKNSKTEKEVKIPSLDSFMTYTEQYLKTGEITLEE
Key: T

Exercise: Is the recorded value of soluble fraction (log2) equal to or greater than -0.03 for this sequence? HMGDTIGEQKAKEIALEHAGLKSSDVTFIRAVLEYDDRNWEYDVEFYDADTYTEYDYEIDAHTGKILSFDH
Key: T

Exercise: Is the recorded value of soluble fraction (log2) equal to or greater than -0.03 for this sequence? HMGQVFEGTFNRKANGKNSVTPAEGGEPVFIAERNSLHAMNGDLVKVSLLAKKKHQPREAQVIEILKRSD
Key: T

Exercise: Is the recorded value of soluble fraction (log2) equal to or greater than -0.03 for this sequence? HMFKEVPVPDVKGMTLEEAKLALEKEGFILGKTEEAESTEVAAGKIISQNLEAGKIAKQGTSVNLVVSKGK
Key: T

Exercise: Is the recorded value of soluble fraction (log2) equal to or greater than -0.03 for this sequence? HMARTDVKLREVAQELLRMGLLEESLRPHLYRTALASMERLNATLEPLDLIARADEIRGLVFLAVRH
Key: F

Exercise: Is the recorded value of soluble fraction (log2) equal to or greater than -0.03 for this sequence? HMVAREAYTTQNLTDVFSISRQAVEKRAKREGWQSVPRKGRGGGKLWVVSSMPAETRDLLASLLLRK
Key: F

Exercise: Is the recorded value of soluble fraction (log2) equal to or greater than -0.03 for this sequence? HMQEDSNISFVKIHVDADSGMAHKKLSKLSLPTGFLIVVIIRGEENIIPNGETEVLPGDLLVAAAREFEN
Key: F

Exercise: Is the recorded value of soluble fraction (log2) equal to or greater than -0.03 for this sequence? HMVEPLIVRNFSINYADIDKLETKIKDYISNSDKSGVNRGRVTSDTRTNMLIVTETASKLAQVEQLLKALD
Key: F

Exercise: Is the recorded value of soluble fraction (log2) equal to or greater than -0.03 for this sequence? HMNDLIKMPYLVGQLYDDVASNQEYADFQFKITEGNDPDKQPGEIMKQDPAADIMVKKNAEVELLVNG
Key: T

Exercise: Is the recorded value of soluble fraction (log2) equal to or greater than -0.03 for this sequence? HMQISDAGALLDAVRRVLAENPAQVEQFRAGKEKVMGFLVGQVMRATGGKANPQMLNDVLREELS
Key: F

Exercise: Is the recorded value of soluble fraction (log2) equal to or greater than -0.03 for this sequence? HMVGMDRYFKIKNIKDSSAAFERDYILHFLKENDWMVSKTAQMIGLERTTLYKKIKQLGLASMLEN
Key: F

Exercise: Is the recorded value of soluble fraction (log2) equal to or greater than -0.03 for this sequence? HMNMAEQGISLDSEAGKARFVSQALPLLKQLPDGVFKQRMLNQLADRVEVTADFIAQQLAQLKAA
Key: F

Exercise: Is the recorded value of soluble fraction (log2) equal to or greater than -0.03 for this sequence? HMNREEFLSQLERLLYDIPAQEREEALEYYNGYFDDAGKEKEAEVIQELGSPGKVAAIIKADLSG
Key: T

Exercise: Is the recorded value of soluble fraction (log2) equal to or greater than -0.03 for this sequence? HMSNLGLQIVRTLTDAGKGVVFITHKLKEALTIADRINVLRRGKVVGDADPKTASESQIAEMMVGRPVQL
Key: F

Exercise: Is the recorded value of soluble fraction (log2) equal to or greater than -0.03 for this sequence? HMAEVALFVNGSDVNLRSGPGQESTRVIGSLNLGDEVRIKSQNGQWREVYVPKTRQVGWVAHWLLSEAPP
Key: T

Exercise: Is the recorded value of soluble fraction (log2) equal to or greater than -0.03 for this sequence? HMQYFDIETEIQKFIKSENNLSDFDKETLQSFLYQLSKGSPEENTAKKVVDILNKFLPLTTAIINMIKALT
Key: T

Exercise: Is the recorded value of soluble fraction (log2) equal to or greater than -0.03 for this sequence? HMRRISLEDWQLIESLIRRDWSPEQISLWLKKYKKIRVSHEWIYQYILKDKSKAGDLHTHLRSR
Key: F

Exercise: Is the recorded value of soluble fraction (log2) equal to or greater than -0.03 for this sequence? HMTGIVVVDVVGQVGRPGLVSLPAGSRVADAITAAGGATPEADVSLLNQARLVIDGEQIRVPRPGEVIAA
Key: F

Exercise: Is the recorded value of soluble fraction (log2) equal to or greater than -0.03 for this sequence? HMRESDQSTVELSLERTIQEALMVNPRTSSVEEFSFEWGTGRVKVSFIVYSVDGEPFTVDSIIE
Key: F

Exercise: Is the recorded value of soluble fraction (log2) equal to or greater than -0.03 for this sequence? HMYLPLREVVFNALRTAIIHGEFKPGERLMEMHLAKSLGVSRTPVREAMRMLELEGLVVMIPKKGAEVAR
Key: F

Exercise: Is the recorded value of soluble fraction (log2) equal to or greater than -0.03 for this sequence? HMDGVTEYTVKSGDSFSAIINKHYNVNYDEKLMQAVAAYNNIEDMNKLQLGQIIKLPPKEQLNL
Key: T

Exercise: Is the recorded value of soluble fraction (log2) equal to or greater than -0.03 for this sequence? HMYDESVFTGEYHYYYEKLSDDDKLIYRQIYAMMQKRMDGISLNTTDTDNVSRIQQFVLLDNPQF
Key: F

Exercise: Is the recorded value of soluble fraction (log2) equal to or greater than -0.03 for this sequence? HMYIDNVTIYDVGFNERIVHALERAGVKNLYDLSQMNFYQLQRIRNLGASSLEKVINRIHSYGILLKNES
Key: F

Exercise: Is the recorded value of soluble fraction (log2) equal to or greater than -0.03 for this sequence? HMAERLQARIDAPGVRLDKALAETFPTLSRARLQALLADGAVTRDGQTVSNGSAKAQPGLYVVALPPVA
Key: T

Exercise: Is the recorded value of soluble fraction (log2) equal to or greater than -0.03 for this sequence? HMPPDVIENIFKNDANKIIDLYNMAPRGQKETIVEMIKNKRLQGINVDANVLVKLGELTGIDFVN
Key: T

Exercise: Is the recorded value of soluble fraction (log2) equal to or greater than -0.03 for this sequence? HMNTPNYDVLYRGLADADAGQIMEALQKSNIPFKVDSHSGVLLVPADQVHEARLKLASQGLPRG
Key: T

Exercise: Is the recorded value of soluble fraction (log2) equal to or greater than -0.03 for this sequence? HMGNFNDMLKYLRVREKMSQAELADKLGVSKSTVGMYELGKREPDFETLEAIADLFNVDMNFLLGK
Key: F

Exercise: Is the recorded value of soluble fraction (log2) equal to or greater than -0.03 for this sequence? HMSASAIYVRPKDVKEPEEVADYLSGVLELDREKLYKKITDKSQWIALIERKVDNDIAFDIRNKKFKGIEI
Key: T

Exercise: Is the recorded value of soluble fraction (log2) equal to or greater than -0.03 for this sequence? HMRNANENTLKDLPVAVPNIHVSNIEEKKDFHLIQLEYSQEFDPREDLFNFAVNSSWVILKMTPT
Key: T

----------
- assay.details: soluble fraction after stress (log2 fold change); higher = more stays soluble; pooled small domains, quantitative proteomics
- assay.setup: stress: 50 degC
I'd be grateful if you could share measured soluble fraction (log2) for these entries.
// response body must contain only the number

Reported soluble fraction (log2) for HMSALAEELIKKNQAMILTIKPRDTIWGIANRFQSPPSEKFINQIIELNQVDPYRLRIGQDLLIPLN was -0.584

Reported soluble fraction (log2) for HMEKAKVPSVIGMTEANAKRTIRDAGFKVGRVTRVESEAYDKGKVIEQQYEAGSELEKKKPISIVVSKGKK was -0.162

Reported soluble fraction (log2) for HMGHLTWTVTGIGHERRARTVAEQMSSVFGVLEARASSAGTVYLEFEREKIDEGGLEASLKRMGVTRVV was -1.71

Reported soluble fraction (log2) for HMGTWKKIGTMTATVNDLYVRETPNGYIMGFINKGTVVEVDGKTTGKWTHAKVEGIGVGWIWTGYLDK was -3.47
